target: PKC-ξ; construct: PKC-eta; Human, PanVera; assay: In vitro kinase inhibition screen
PROPERTY LABEL: IC50

Report IC50 for `COc1cc2c(Nc3ccc(Cl)c(Cl)c3F)ncnc2cc1OC[C@@H]1C[C@@H]2CN(C)C[C@@H]2C1` tested on PKC-ξ.
> 10 µM

###

test: in vivo; conditions: male, dog, po, 100 mg/kg
PROPERTY LABEL: AUC(0-t)

Reported AUC(0-t), molecule `COc1cc2c(Nc3ccc(Cl)c(Cl)c3F)ncnc2cc1OC[C@@H]1C[C@@H]2CN(C)C[C@@H]2C1` : ____
8970 ng·h/mL

###

molecular target: EGFR WT (pCMV/Lx-1) (Homo sapiens, UniProt P00533); assay: EGFR phosphorylation ELISA in transfected Lx-1 cells
Sequence (P00533 25-1210): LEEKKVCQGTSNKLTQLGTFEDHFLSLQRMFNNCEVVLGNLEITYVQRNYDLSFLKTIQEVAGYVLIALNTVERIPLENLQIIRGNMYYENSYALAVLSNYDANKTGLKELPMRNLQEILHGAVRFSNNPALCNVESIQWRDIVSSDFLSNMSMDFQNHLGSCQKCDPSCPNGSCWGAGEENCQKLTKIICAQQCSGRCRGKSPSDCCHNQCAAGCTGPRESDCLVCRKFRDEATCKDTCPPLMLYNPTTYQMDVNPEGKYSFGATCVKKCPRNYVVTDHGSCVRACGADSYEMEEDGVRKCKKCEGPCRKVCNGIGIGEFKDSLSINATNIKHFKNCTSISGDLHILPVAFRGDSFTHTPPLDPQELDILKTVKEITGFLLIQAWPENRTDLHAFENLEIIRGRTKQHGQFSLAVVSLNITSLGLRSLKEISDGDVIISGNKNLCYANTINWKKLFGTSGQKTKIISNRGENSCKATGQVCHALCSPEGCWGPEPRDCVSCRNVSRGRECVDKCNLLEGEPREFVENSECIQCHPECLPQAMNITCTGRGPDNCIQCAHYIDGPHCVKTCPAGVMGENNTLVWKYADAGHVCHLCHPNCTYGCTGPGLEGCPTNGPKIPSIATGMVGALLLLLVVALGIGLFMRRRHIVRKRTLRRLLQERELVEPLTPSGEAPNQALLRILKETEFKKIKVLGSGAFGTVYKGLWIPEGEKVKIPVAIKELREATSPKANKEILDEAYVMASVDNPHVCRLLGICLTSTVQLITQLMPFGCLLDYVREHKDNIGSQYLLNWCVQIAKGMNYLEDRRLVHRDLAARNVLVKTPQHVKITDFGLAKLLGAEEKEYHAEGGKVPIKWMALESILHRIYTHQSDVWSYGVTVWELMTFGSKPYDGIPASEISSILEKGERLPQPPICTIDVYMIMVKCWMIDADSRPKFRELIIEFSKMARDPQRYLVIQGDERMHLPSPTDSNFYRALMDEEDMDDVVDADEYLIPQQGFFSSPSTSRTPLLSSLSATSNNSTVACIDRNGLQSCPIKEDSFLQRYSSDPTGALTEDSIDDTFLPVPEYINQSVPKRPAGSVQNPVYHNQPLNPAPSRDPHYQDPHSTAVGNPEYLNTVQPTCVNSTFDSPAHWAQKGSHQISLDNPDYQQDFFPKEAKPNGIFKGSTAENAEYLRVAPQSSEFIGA
PROPERTY LABEL: IC50 (µM)
Report the value in µM with no unit label.

Quick check: IC50 of `COc1cc2c(Nc3ccc(Cl)c(Cl)c3F)ncnc2cc1OC[C@@H]1C[C@@H]2CN(C)C[C@@H]2C1` ?
0.012

###

assay: in vivo; settings: female, dog, po, 300 mg/kg
PROPERTY LABEL: AUC(0-t) (ng·h/mL)
Numeric answer only, unit ng·h/mL assumed.

Given the entry `COc1cc2c(Nc3ccc(Cl)c(Cl)c3F)ncnc2cc1OC[C@@H]1C[C@@H]2CN(C)C[C@@H]2C1` , report its measured AUC(0-t).
17100

###

target: MAP4K5 (Homo sapiens, UniProt Q9Y4K4)
PROPERTY LABEL: IC50

What measured IC50 goes with `COc1cc2c(Nc3ccc(Cl)c(Cl)c3F)ncnc2cc1OC[C@@H]1C[C@@H]2CN(C)C[C@@H]2C1` ?
> 1000 nM

###

assay: in vivo; conditions: male, monkey, po, 100 mg/kg
PROPERTY LABEL: AUC(0-t) (ng·h/mL)
Quick note: give the figure in ng·h/mL, leave out the unit.

Request the reported AUC(0-t) associated with `COc1cc2c(Nc3ccc(Cl)c(Cl)c3F)ncnc2cc1OC[C@@H]1C[C@@H]2CN(C)C[C@@H]2C1`
19600

###

assay: clinical; conditions: human, in vivo
PROPERTY LABEL: half-life

Form field: reported half-life of `COc1cc2c(Nc3ccc(Cl)c(Cl)c3F)ncnc2cc1OC[C@@H]1C[C@@H]2CN(C)C[C@@H]2C1`
~60 h

###

test: in vivo; conditions: rat, po, 200 mg/kg
PROPERTY LABEL: Cmax (ng/mL)
Answer format: numeric, ng/mL implied, no suffix.

What does the data say about its Cmax? Entry: `COc1cc2c(Nc3ccc(Cl)c(Cl)c3F)ncnc2cc1OC[C@@H]1C[C@@H]2CN(C)C[C@@H]2C1`
1000

###

experiment: in vivo; conditions: male, monkey, po, 100 mg/kg
PROPERTY LABEL: half-life (h)
Record the value in h, omitting the unit from your answer.

What value of half-life has been recorded for this entry: `COc1cc2c(Nc3ccc(Cl)c(Cl)c3F)ncnc2cc1OC[C@@H]1C[C@@H]2CN(C)C[C@@H]2C1`
20.7

###

assay: in vivo; settings: male, monkey, po, 150 mg/kg
PROPERTY LABEL: AUC(0-t) (ng·h/mL)
Record the value in ng·h/mL, omitting the unit from your answer.

Given the compound COc1cc2c(Nc3ccc(Cl)c(Cl)c3F)ncnc2cc1OC[C@@H]1C[C@@H]2CN(C)C[C@@H]2C1 [XL-647] , what is its reported AUC(0-t)?
14500

###

target: PAK2 (Homo sapiens, UniProt Q13177)
Sequence (Q13177 whole entry, species assumed): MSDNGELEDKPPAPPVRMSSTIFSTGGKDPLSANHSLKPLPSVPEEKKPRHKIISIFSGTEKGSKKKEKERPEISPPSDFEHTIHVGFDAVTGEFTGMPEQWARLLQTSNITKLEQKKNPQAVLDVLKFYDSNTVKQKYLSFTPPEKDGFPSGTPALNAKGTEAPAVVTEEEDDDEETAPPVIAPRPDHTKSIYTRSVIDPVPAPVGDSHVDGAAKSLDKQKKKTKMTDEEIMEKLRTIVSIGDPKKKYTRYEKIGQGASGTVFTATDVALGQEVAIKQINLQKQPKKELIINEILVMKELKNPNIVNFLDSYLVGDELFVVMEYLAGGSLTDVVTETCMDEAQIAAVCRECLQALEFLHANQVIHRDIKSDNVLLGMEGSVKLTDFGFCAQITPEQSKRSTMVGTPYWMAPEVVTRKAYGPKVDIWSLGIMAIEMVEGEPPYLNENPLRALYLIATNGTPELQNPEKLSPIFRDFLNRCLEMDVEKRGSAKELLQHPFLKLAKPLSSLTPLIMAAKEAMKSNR
PROPERTY LABEL: IC50

For the record COc1cc2c(Nc3ccc(Cl)c(Cl)c3F)ncnc2cc1OC[C@@H]1C[C@@H]2CN(C)C[C@@H]2C1 [XL-647] , what value of IC50 is listed for PAK2 (Homo sapiens, UniProt Q13177)?
> 1 µM

###

test: in vivo; details: female, dog, po, 100 mg/kg
PROPERTY LABEL: Cmax (ng/mL)
Number only, in ng/mL; omit the unit.

So what's the measured Cmax for this one? `COc1cc2c(Nc3ccc(Cl)c(Cl)c3F)ncnc2cc1OC[C@@H]1C[C@@H]2CN(C)C[C@@H]2C1`
1100

###

assay: in vivo; conditions: female, monkey, po, 100 mg/kg
PROPERTY LABEL: half-life
Answer shape: numeric part, then the unit.

Tell me the measured half-life of COc1cc2c(Nc3ccc(Cl)c(Cl)c3F)ncnc2cc1OC[C@@H]1C[C@@H]2CN(C)C[C@@H]2C1 [XL-647] , please.
11.6 h

###

experiment: in vivo; conditions: male, monkey, po, 2 mg/kg
PROPERTY LABEL: Cmax (ng/mL)
Respond with the bare value in ng/mL.

Given COc1cc2c(Nc3ccc(Cl)c(Cl)c3F)ncnc2cc1OC[C@@H]1C[C@@H]2CN(C)C[C@@H]2C1 [XL-647] , state its recorded Cmax.
28.4

###

biological target: Flt-4 (Homo sapiens); test: Flt-4 autophosphorylation ELISA, transfected COS cells; format: cell-based; design: expressed in transfected cells; host or cells: COS cells; details: read-out: Cellular IC50, autophosphorylation
PROPERTY LABEL: pIC50
Convention used: pIC50 is expressed as -log10 of the molar concentration.

pIC50 lookup needed for `COc1cc2c(Nc3ccc(Cl)c(Cl)c3F)ncnc2cc1OC[C@@H]1C[C@@H]2CN(C)C[C@@H]2C1` , thanks.
7.05

###

target: SGK (Homo sapiens)
PROPERTY LABEL: IC50

Missing value: IC50, SGK (Homo sapiens), entry `COc1cc2c(Nc3ccc(Cl)c(Cl)c3F)ncnc2cc1OC[C@@H]1C[C@@H]2CN(C)C[C@@H]2C1` . Fill in?
> 10 µM

###

assay: in vivo; details: rat, po, 200 mg/kg
PROPERTY LABEL: AUC(0-t) (ng·h/mL)
Write the number in ng·h/mL without appending the unit.

Which AUC(0-t) value belongs to COc1cc2c(Nc3ccc(Cl)c(Cl)c3F)ncnc2cc1OC[C@@H]1C[C@@H]2CN(C)C[C@@H]2C1 [XL-647] ?
29500

###

assay: in vivo; conditions: male, monkey, po, 10 mg/kg
PROPERTY LABEL: half-life (h)
Your answer should be a plain number; it is taken to be in h.

I have this compound here, `COc1cc2c(Nc3ccc(Cl)c(Cl)c3F)ncnc2cc1OC[C@@H]1C[C@@H]2CN(C)C[C@@H]2C1` , and I need its recorded half-life.
14.7

###

target: PKBβ (Homo sapiens)
pIC50: −log10 of the molar value.
PROPERTY LABEL: pIC50

Which pIC50 reading was recorded for the compound COc1cc2c(Nc3ccc(Cl)c(Cl)c3F)ncnc2cc1OC[C@@H]1C[C@@H]2CN(C)C[C@@H]2C1 [XL-647] ?
< 5.00

###

biological target: EphB4 (Homo sapiens)
PROPERTY LABEL: pKi
Scale explanation: pKi corresponds to minus log10 of a concentration expressed in moles per litre.

Field request: pKi | item: `COc1cc2c(Nc3ccc(Cl)c(Cl)c3F)ncnc2cc1OC[C@@H]1C[C@@H]2CN(C)C[C@@H]2C1`
9.00

###

molecular target: UniProtKB P09619; experiment: In vitro kinase inhibition screen; format: biochemical
Sequence (P09619 33-1106, species assumed): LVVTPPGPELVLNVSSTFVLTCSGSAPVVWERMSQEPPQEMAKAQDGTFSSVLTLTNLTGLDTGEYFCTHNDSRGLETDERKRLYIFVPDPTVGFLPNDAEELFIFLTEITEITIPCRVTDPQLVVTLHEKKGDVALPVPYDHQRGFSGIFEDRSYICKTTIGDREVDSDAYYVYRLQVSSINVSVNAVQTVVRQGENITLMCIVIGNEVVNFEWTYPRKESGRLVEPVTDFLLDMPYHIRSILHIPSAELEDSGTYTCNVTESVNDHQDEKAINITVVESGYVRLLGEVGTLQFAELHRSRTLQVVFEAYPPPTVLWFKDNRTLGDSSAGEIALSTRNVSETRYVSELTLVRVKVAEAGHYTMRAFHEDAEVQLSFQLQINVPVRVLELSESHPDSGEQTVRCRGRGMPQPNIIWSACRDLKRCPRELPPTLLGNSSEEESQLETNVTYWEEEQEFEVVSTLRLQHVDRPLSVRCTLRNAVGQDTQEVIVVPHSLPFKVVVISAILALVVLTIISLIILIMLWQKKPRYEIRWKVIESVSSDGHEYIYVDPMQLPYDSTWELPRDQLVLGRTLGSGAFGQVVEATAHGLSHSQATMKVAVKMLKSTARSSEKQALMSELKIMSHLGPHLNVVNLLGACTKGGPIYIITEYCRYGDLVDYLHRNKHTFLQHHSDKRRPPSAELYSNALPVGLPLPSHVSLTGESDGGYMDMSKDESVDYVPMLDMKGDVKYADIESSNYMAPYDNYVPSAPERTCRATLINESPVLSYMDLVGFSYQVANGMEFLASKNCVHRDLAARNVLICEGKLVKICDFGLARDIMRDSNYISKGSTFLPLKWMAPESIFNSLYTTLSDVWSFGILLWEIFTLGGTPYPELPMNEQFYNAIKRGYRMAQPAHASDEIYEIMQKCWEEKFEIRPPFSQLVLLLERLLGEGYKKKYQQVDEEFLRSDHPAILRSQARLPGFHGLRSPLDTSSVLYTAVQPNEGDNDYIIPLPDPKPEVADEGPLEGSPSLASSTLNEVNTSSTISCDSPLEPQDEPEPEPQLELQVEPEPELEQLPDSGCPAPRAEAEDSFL
PROPERTY LABEL: IC50
Express the reported value numerically, then name its unit.

IC50 of COc1cc2c(Nc3ccc(Cl)c(Cl)c3F)ncnc2cc1OC[C@@H]1C[C@@H]2CN(C)C[C@@H]2C1 [XL-647] on UniProtKB P09619?
346 nM

###

molecular target: GSK3β (Homo sapiens, UniProt P49841)
Sequence (P49841 whole entry): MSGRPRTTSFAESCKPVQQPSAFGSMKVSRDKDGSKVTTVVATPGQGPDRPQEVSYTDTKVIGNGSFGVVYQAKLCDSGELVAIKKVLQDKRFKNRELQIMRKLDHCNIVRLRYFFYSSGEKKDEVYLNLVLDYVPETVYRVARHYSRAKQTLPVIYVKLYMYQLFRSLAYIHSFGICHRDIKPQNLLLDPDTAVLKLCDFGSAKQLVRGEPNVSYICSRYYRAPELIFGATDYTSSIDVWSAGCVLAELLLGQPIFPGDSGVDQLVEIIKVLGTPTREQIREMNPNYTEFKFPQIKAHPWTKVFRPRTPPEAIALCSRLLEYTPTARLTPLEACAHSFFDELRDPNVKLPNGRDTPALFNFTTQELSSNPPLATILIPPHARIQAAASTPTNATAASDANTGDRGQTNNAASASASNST
PROPERTY LABEL: IC50

Requested field: IC50. Item: COc1cc2c(Nc3ccc(Cl)c(Cl)c3F)ncnc2cc1OC[C@@H]1C[C@@H]2CN(C)C[C@@H]2C1 [XL-647]
> 1000 nM

###

target: FGFR1 (Homo sapiens, UniProt P11362)
Sequence (P11362 398-822 limits assumed): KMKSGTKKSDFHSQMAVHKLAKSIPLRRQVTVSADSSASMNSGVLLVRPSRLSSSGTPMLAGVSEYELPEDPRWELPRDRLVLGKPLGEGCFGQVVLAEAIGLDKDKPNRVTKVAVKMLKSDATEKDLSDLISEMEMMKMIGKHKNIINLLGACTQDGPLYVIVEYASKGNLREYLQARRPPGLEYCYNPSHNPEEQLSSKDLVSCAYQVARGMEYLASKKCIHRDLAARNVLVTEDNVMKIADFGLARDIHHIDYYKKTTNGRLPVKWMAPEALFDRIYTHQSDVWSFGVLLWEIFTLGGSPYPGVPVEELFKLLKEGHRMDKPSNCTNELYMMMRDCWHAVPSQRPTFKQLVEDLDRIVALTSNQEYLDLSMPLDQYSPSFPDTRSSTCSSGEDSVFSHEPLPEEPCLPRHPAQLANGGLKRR
PROPERTY LABEL: IC50

Request the reported IC50 associated with `COc1cc2c(Nc3ccc(Cl)c(Cl)c3F)ncnc2cc1OC[C@@H]1C[C@@H]2CN(C)C[C@@H]2C1`
855 nM

###

biological target: CamKIV (Homo sapiens, UniProt Q16566)
PROPERTY LABEL: IC50

Recorded IC50 for `COc1cc2c(Nc3ccc(Cl)c(Cl)c3F)ncnc2cc1OC[C@@H]1C[C@@H]2CN(C)C[C@@H]2C1` , please?
> 1000 nM

###

biological target: EGFR L861Q (pCMV/Lx-1) (Homo sapiens, UniProt P00533, L861Q); experiment: EGFR phosphorylation ELISA in transfected Lx-1 cells
Sequence (P00533 25-1210 L861Q): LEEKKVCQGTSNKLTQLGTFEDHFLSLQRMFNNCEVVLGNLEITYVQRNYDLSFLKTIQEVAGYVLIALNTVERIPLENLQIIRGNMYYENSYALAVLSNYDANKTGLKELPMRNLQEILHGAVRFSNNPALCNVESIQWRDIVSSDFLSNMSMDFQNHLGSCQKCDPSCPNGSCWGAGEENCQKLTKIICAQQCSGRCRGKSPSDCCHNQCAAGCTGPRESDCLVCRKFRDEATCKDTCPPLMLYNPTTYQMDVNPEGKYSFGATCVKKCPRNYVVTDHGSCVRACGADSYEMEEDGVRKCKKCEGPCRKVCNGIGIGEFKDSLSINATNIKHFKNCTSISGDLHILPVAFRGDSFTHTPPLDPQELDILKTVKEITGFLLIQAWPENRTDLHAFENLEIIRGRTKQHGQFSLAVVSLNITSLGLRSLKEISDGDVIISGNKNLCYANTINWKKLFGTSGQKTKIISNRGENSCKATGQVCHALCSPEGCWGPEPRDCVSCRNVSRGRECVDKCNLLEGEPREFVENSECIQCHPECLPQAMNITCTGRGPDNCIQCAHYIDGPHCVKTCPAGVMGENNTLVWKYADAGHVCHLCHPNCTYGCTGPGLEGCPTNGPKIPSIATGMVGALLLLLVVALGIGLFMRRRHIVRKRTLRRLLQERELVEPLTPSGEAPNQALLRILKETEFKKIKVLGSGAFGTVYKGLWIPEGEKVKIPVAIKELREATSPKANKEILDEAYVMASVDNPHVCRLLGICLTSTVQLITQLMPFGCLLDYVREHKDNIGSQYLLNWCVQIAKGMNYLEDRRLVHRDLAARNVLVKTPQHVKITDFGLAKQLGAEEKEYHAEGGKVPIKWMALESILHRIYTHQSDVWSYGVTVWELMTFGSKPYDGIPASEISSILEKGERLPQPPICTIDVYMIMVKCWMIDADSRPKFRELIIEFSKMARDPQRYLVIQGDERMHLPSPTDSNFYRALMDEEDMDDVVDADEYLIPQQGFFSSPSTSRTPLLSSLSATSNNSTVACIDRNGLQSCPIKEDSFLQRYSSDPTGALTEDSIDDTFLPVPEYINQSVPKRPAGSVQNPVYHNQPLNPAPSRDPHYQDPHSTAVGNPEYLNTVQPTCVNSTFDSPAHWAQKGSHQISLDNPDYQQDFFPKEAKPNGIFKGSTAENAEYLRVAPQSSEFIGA
PROPERTY LABEL: IC50 (nM)
Enter your answer as a number in nM; do not include the unit.

Report IC50 for COc1cc2c(Nc3ccc(Cl)c(Cl)c3F)ncnc2cc1OC[C@@H]1C[C@@H]2CN(C)C[C@@H]2C1 [XL-647] please.
10
